assay: Solubility Measurements; type: physicochemical; details: pH 1.2, simulated gastric fluid
QUANTITY: solubility (mg/mL)
Write it as a number; the unit mg/mL goes unstated.

# input In one line, give reported solubility of the entry O=C(c1ccc(-c2ccncc2)cc1)N1CCN(S(=O)(=O)c2ccc3cc(Cl)ccc3c2)CC1 [Compound 1] .
# output 0.25

---

experiment: Solubility Measurements; format: physicochemical; conditions: pH 6.8, aqueous buffer
QUANTITY: solubility (µg/mL)
Write it as a number; the unit µg/mL goes unstated.

# input In one line, give reported solubility of the entry O=C(c1ccc(-c2ccncc2)cc1)N1CCN(S(=O)(=O)c2ccc3cc(Cl)ccc3c2)CC1 [Compound 1] .
# output 2

All figures here come from patent US20040076673A1.
